Where these numbers come from: patent US20050245399A1

- System: corn (Zea mays L.): ZEAMX
- Assay remarks: Test Example 1 pre-emergence herbicidal activity, ZEAMX
- Format: in vivo
- Protocol conditions: Rate 63 g a.i./ha, visually observed 20th to 23rd day after application
Reported values of Pre-emergence Herbicidal Activity ZEAMX (growth controlling degree) for individual entries
Parameter measured: Pre-emergence Herbicidal Activity ZEAMX (growth controlling degree) (%)

[
  {
    "Molecule": "COc1c(Cl)cc(F)c(-c2nn(C)c(OC(F)F)c2Cl)c1NC(=O)C=Cc1ccc(F)cc1",
    "Unit abbreviation": "%",
    "Observed value": 0
  },
  {
    "Molecule": "COc1c(Cl)cc(F)c(-c2nn(C)c(OC(F)F)c2Cl)c1NC(=O)C1CC1",
    "Unit abbreviation": "%",
    "Observed value": 0
  },
  {
    "Molecule": "COc1c(Cl)cc(F)c(-c2nn(C)c(OC(F)F)c2Cl)c1NC(=O)C(C)(C)Oc1ccccc1",
    "Unit abbreviation": "%",
    "Observed value": 0
  },
  {
    "Molecule": "COc1c(Cl)cc(F)c(-c2nn(C)c(OC(F)F)c2Cl)c1NC(=O)C(C)Cc1ccccc1 (stereo not drawn)",
    "Unit abbreviation": "%",
    "Observed value": 0
  },
  {
    "Molecule": "COc1c(Cl)cc(F)c(-c2nn(C)c(OC(F)F)c2Cl)c1NC(=O)C(C)C",
    "Unit abbreviation": "%",
    "Observed value": 50
  },
  {
    "Molecule": "COc1c(Cl)cc(F)c(-c2nn(C)c(OC(F)F)c2Cl)c1NC(=O)/C=C/c1ccccc1",
    "Unit abbreviation": "%",
    "Observed value": 10
  },
  {
    "Molecule": "COc1c(Cl)cc(F)c(-c2nn(C)c(OC(F)F)c2Cl)c1NC(=O)c1ccccc1C(F)(F)F",
    "Unit abbreviation": "%",
    "Observed value": 0
  },
  {
    "Molecule": "COc1c(Cl)cc(F)c(-c2nn(C)c(OC(F)F)c2Cl)c1NC(=O)C=Cc1cccc(C)c1",
    "Unit abbreviation": "%",
    "Observed value": 0
  },
  {
    "Molecule": "Cn1nc(-c2c(F)cc(Cl)c(OC(F)F)c2NC=O)c(Cl)c1OC(F)F",
    "Unit abbreviation": "%",
    "Observed value": 40
  },
  {
    "Molecule": "COc1c(Cl)cc(F)c(-c2nn(C)c(OC(F)F)c2Cl)c1NC(=O)OCc1ccccn1",
    "Unit abbreviation": "%",
    "Observed value": 10
  },
  {
    "Molecule": "COc1c(Cl)cc(F)c(-c2nn(C)c(OC(F)F)c2Cl)c1NC(=O)c1ccccc1C",
    "Unit abbreviation": "%",
    "Observed value": 10
  },
  {
    "Molecule": "COc1c(Cl)cc(F)c(-c2nn(C)c(OC(F)F)c2Cl)c1N(C=O)C(C)C",
    "Unit abbreviation": "%",
    "Observed value": 40
  }
]
